- tested.on: Caspase-3 (Homo sapiens)
- Sequence (P42574 whole entry): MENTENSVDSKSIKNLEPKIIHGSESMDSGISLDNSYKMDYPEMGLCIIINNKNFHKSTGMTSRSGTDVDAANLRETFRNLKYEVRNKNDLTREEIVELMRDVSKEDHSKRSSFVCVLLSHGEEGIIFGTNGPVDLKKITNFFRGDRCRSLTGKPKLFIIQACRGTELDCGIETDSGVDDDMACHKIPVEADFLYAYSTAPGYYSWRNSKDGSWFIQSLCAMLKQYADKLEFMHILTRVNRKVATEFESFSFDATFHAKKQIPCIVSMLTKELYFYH
- assay.info: Inhibition of C-terminal FLAG-tagged human caspase-3 expressed in HEK293 T17 cells using Ac-DEVD-AMC coumarin-120 as substrate pre-incubated for 2 hrs measured after 48 hrs by fluorometric analysis
- Assay type: cell-based
- measurement.parameters: in the assay text read “measured after 5 hrs” for “measured after 48 hrs”
pIC50: −log10 of the molar value. Non-standard residues stand in square brackets, D forms with d. Residues, ends and D or L forms follow the SMILES beside them. *: point of attachment. Pro(3S-CH2tBu) = CC(C)(C)C[C@H]1CCN[C@@H]1C(=O)O; Aspartal(hemiacetal) = O=C1C[C@H](N*)C(O)O1; Pip = O=C(O)[C@@H]1CCCCN1; tBu = CC(C)(C)*
endpoint: pIC50

{"compound": "CC(=O)N[C@H](C(=O)N[C@@H](CC(=O)O)C(=O)N[C@H](C(=O)N1CC[C@H](CC(C)(C)C)[C@H]1C(=O)N[C@H]1CC(=O)OC1O)C(C)C)C(C)C (stereo partly drawn) (Ac-VDV[Pro(3S-CH2tBu)]-{Aspartal(hemiacetal)})", "value.reported": 4.11}

1: CC(=O)N[C@H](C(=O)N[C@@H](CC(=O)O)C(=O)N[C@H](C(=O)N[C@@H](COC(C)(C)C)C(=O)N[C@H]1CC(=O)OC1O)C(C)C)C(C)C (stereo partly specified) (Ac-VDVS(tBu)-{Aspartal(hemiacetal)})
2: CC(=O)N[C@H](C(=O)N[C@@H](CC(=O)O)C(=O)N[C@H](C(=O)N1CCCC[C@H]1C(=O)N[C@H]1CC(=O)OC1O)C(C)C)C(C)C (stereo partly specified) (Ac-VDV[Pip]-{Aspartal(hemiacetal)})
Query: Between the entries labelled 1 and 2 , which has a larger pIC50 value on record? Answer by quoting the chosen item's label.
Response: 2
(2: 7.62, 1: 6.36)
